# system tested: Human PD-1 antigen protein (Sino Biological, 10377-H08H) (human, UniProt Q15116 25-167)
# Sequence (Q15116 25-167 limits assumed): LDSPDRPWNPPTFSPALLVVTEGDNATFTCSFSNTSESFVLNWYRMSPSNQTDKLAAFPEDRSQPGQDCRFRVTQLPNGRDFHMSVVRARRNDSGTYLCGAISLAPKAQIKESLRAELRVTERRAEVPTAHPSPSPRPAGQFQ
# method notes: SPR Biacore 8K, fusion protein captured by anti-human IgG (Fc), human PD-1 as analyte
Reported kon values for the following binders.
Report the figure in M⁻¹ s⁻¹ without appending any unit label.

Ask | kon lookup needed for A-N88D-M26 (Fc fusion, not shown: IgG1 hinge (C220S) + Fc Knob chain as in A-N88D; IgG1 hinge (C220S) + Fc Hole chain as in A-N88D) chain (part 1 of 2): EVQLVESGGGLVQPGGSLRLSCAASGLTFSSYSMSWYRQAPGKGRELVAIISGSGGITHYVDSVKGRFTISRDNAKNTLYLQMRSLRAEDTAVYYCRAVSDWEDYWGQGTQVTVSS chain (part 2 of 2): GGGGSGGGGSGGGGSAPASSSTKKTQLQLEHLLLDLQMILQGISNYKNPKLTRMLTAKFYMPKKATELKHLQCLEEELKPLEEVLQGAQSKNFHLRPRDLISDINVIVLELKGSETTFMCEYADETATIVEFLNRWITFAQSIISTLT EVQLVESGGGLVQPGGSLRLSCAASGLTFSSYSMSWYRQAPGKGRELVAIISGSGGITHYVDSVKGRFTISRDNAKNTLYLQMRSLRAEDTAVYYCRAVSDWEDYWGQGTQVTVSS , thanks.
Reply | 179000

Ask | Same thing, different binder: A-N88D-M27 (Fc fusion, not shown: IgG1 hinge (C220S) + Fc Knob chain as in A-N88D; IgG1 hinge (C220S) + Fc Hole chain as in A-N88D) chain (part 1 of 2): EVQLVESGGGLVQPGGSLRLSCAASGLTFSSYSMSWYRQAPGKGRELVAIISGSGGITHYVDSVKGRFTISRDNAKNTLYLQMRSLRAEDTAVYYCRAVSDWQDYWGQGTQVTVSS chain (part 2 of 2): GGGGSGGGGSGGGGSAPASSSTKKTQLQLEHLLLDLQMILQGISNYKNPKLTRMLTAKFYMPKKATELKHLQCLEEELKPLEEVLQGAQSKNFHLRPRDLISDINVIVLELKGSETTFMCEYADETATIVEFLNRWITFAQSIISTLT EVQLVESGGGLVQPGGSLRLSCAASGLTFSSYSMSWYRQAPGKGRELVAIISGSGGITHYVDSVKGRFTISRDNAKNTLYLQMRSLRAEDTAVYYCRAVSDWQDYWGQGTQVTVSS
Reply | 137000

Ask | Same thing, different binder: A-N88D-M28 (Fc fusion, not shown: IgG1 hinge (C220S) + Fc Knob chain as in A-N88D; IgG1 hinge (C220S) + Fc Hole chain as in A-N88D) chain (part 1 of 2): EVQLVESGGGLVQPGGSLRLSCAASGLTFSSYSMSWYRQAPGKGRELVAIISGSGGITHYADSVKGRFTISRDNAKNTLYLQMRSLRAEDTAVYYCRAVSDWQDYWGQGTQVTVSS chain (part 2 of 2): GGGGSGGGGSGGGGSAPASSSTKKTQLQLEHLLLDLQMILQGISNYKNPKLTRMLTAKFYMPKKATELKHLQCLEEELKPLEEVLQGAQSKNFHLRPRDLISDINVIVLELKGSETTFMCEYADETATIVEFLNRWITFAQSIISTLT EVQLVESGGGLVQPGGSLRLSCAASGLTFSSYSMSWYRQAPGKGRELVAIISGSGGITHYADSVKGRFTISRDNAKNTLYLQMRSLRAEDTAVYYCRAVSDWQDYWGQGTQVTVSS
Reply | 148000

Ask | Same thing, different binder: A-N88D-M15 (Fc fusion, not shown: IgG1 hinge (C220S) + Fc Knob chain as in A-N88D; IgG1 hinge (C220S) + Fc Hole chain as in A-N88D) chain (part 1 of 2): EVQLVESGGGLVQPGGSLRLSCAASGLTFSDYSMSWYRQAPGKGRELVAIISGSGGITHYVDSVKGRFTISRDNAKNTLYLQMRSLRAEDTAVYYCRAVSDWEDYWGQGTQVTVSS chain (part 2 of 2): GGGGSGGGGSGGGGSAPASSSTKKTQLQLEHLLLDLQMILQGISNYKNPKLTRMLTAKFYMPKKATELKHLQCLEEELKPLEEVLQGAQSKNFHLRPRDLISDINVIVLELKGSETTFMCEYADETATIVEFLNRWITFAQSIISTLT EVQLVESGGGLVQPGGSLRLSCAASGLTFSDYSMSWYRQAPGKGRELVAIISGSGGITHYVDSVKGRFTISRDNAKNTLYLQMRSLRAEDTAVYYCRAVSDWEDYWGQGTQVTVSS
Reply | 241000

Ask | Same thing, different binder: A-N88D-M08 (Fc fusion, also called A-N88D-M8; not shown: IgG1 hinge (C220S) + Fc Knob chain as in A-N88D; IgG1 hinge (C220S) + Fc Hole chain as in A-N88D) chain (part 1 of 2): EVQLVESGGGLVQPGGSLRLSCAASGLTFSDYSMSWYRQAPGKGRELVAIISGSGVITHYVDSVKGRFTISRDNAKNTLYLQMRSLRAEDTAVYYCRAVSDWQDYWGQGTQVTVSS chain (part 2 of 2): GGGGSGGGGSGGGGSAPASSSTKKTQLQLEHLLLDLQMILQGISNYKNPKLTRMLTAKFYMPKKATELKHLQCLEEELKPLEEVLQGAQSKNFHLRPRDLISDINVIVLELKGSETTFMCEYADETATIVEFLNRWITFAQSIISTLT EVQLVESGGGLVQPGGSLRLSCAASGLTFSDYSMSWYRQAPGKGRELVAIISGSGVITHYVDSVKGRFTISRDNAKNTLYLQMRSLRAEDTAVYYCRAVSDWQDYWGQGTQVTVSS
Reply | 215000
